study.system: T1, pig serum albumin (pig, UniProt P08835 25-607)
T1 construct: bought protein, amine-coupled to a CM5 chip; also called Pig SA
assay.explanation: SPR (Biacore 8K), albumin immobilised, 25 C, 1:1 kinetics
Measured kon, listed per entry.
All answers are understood in M⁻¹ s⁻¹, so give the number only.

Below are worked cases with known answers.
INS Analog 30 (other, single-chain insulin B-L2-A-L1-VHH fusion; also called Ex. 30) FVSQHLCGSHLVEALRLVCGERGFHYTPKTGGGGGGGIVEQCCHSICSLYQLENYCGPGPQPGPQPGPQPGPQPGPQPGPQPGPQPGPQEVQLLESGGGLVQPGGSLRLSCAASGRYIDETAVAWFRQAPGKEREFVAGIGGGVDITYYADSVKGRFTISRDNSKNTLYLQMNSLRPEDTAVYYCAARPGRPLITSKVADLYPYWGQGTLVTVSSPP; 110000
INS Analog 26 (other, single-chain insulin B-L2-A-L1-VHH fusion; also called Ex. 26) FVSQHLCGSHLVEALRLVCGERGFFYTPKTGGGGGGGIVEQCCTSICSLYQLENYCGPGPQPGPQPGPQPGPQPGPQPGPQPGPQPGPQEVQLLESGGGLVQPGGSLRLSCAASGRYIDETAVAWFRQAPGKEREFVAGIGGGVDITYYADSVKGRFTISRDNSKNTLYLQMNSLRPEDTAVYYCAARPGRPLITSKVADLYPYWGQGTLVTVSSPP; 110000

Now take the following binder into account.
Prompt: Return kon for the following binder: INS Analog 27 (other, single-chain insulin B-L2-A-L1-VHH fusion; also called Ex. 27) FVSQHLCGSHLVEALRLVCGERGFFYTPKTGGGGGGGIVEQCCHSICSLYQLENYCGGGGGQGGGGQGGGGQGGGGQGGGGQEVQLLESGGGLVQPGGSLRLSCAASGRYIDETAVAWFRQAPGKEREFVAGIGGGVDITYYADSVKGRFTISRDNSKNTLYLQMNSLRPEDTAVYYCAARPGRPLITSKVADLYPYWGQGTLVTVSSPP
Response: 120000
